experimental_protocol: Quantitative High-Throughput drug screen in 47 multiple myeloma cell lines against the NCATS MIPE library collection: U266_ATCC cell viability assay (AID 1919864); further: nearly all actives have a fitted effect of over 35% in size
experimental_setup: U266 myeloma viability, CellTiter-Glo ATP luminescence, 48 h; series mostly up to 45.8 µM
Inconclusive results are not listed. Calls of active or inactive are those of the source. The call rests on the fitted dose curve; in most records, active means well fitted cell-killing curve with a large enough effect; inconclusive means small, poorly fitted or top-dose-only effect, or effect the other way; inactive means no such curve, though single readings can be large or run the other way.
Hi! Could you answer with just one of these? active, inactive

input: Check the results log: what was the call for CC(C)(C)c1nc2c3cc[nH]c(=O)c3c3cc(F)ccc3c2[nH]1 ?
output: active

input: For C[C@@]12C[C@@]3(O)O[C@@H](O1)[C@]1(COC(=O)c4ccccc4)[C@@H]3C[C@@]12O[C@@H]1O[C@H](CO)[C@@H](O)[C@H](O)[C@@H]1O , which call appears in the assay record?
output: inactive

input: # outcome recorded in this test, key = O=[N+]([O-])c1cn2c(n1)OC[C@@H](OCc1ccc(OC(F)(F)F)cc1)C2
output: active

input: # fetch the recorded call for COc1cc(CCc2cc(NC(=O)c3ccc(N4C[C@@H](C)N[C@@H](C)C4)cc3)n[nH]2)cc(OC)c1 here
output: active

input: How did this test come out for CN(C)c1ccc2cc(C(=O)N[C@@H](CCCN=C(N)CCl)C(=O)NCc3ccccc3)ccc2c1 ?
output: active

input: Answer briefly: the call reported for CC(=O)O[C@]1(C(C)=O)CC[C@H]2[C@@H]3C=C(C)C4=CC(=O)CC[C@]4(C)[C@@H]3CC[C@@]21C in this assay.
output: active

input: Can you look up the reported call for CC(C)C[C@H](NC(=O)[C@@H](NC(=O)c1cccc(-c2ccccc2)n1)[C@@H](C)O)B(O)O for me?
output: active

input: Record lookup: outcome of this test for O=c1[nH]c(=O)n([C@H]2C[C@@H](O)[C@@H](CO)O2)cc1F ?
output: active

input: Name the outcome recorded for CC1(C)O[C@@H]2C[C@H]3[C@@H]4CCC5=CC(=O)C=C[C@]5(C)[C@@H]4[C@@H](O)C[C@]3(C)[C@]2(C(=O)CO)O1 in the assay.
output: inactive

input: Query: recorded result category for CC(=O)N1CCN(c2ccc(OCc3nn(C)c(C)c3-c3cccc4c(CCCOc5cccc6ccccc56)c(C(=O)O)n(Cc5cccnc5)c34)cc2)CC1 in this test
output: active

----------
experimental_protocol: Quantitative High-Throughput drug screen in 47 multiple myeloma cell lines against the NCATS MIPE library collection: XG6_PLB cell viability assay (AID 1919865); further: nearly all actives have a fitted effect of over 40% in size
experimental_setup: XG6 myeloma viability, CellTiter-Glo ATP luminescence, 48 h; series mostly up to 45.8 µM
Records with an inconclusive call do not appear. Active and inactive are the calls of the source. Calls follow the shape of the dose curve; as a rule, active = well fitted cell-killing curve with a large enough effect; inconclusive = small, poorly fitted or top-dose-only effect, or effect the other way; inactive = no such curve, though single readings can be large or run the other way.
Outcome (select one): TRUE (active), FALSE (inactive)

input: Per the assay record, what outcome was assigned to CCC(C(=O)O)C1CCC(C)C(C(C)C(O)C(C)C(=O)C(CC)C2OC3(C=CC(O)[C@@]4(CC[C@](C)(C5CC[C@@](O)(CC)C(C)O5)O4)O3)C(C)CC2C)O1 (some centres not stated) ?
output: TRUE

input: Hi team, can someone confirm the assay call for CC(C)(C)c1nc2c3cc[nH]c(=O)c3c3cc(F)ccc3c2[nH]1 ?
output: TRUE

input: Write down the call the test reported for this compound. Item: C[N+]1(C)[C@@H]2C[C@@H](OC(=O)C(O)(c3cccs3)c3cccs3)C[C@H]1[C@@H]1O[C@@H]12
output: FALSE

input: What classification did CC(C)c1cnn2c(NCc3ccccc3)cc(NCCCCCCN)nc12 end up with in this test?
output: TRUE

input: I'd appreciate the recorded outcome for CCCCC(=O)O[C@]1(C(=O)CO)[C@@H](C)C[C@H]2[C@@H]3CCC4=CC(=O)C=C[C@]4(C)[C@@]3(F)[C@@H](O)C[C@@]21C from this test.
output: FALSE

input: GET /call?item= Oc1cc(-c2nc(-c3ccccc3)[nH]c2-c2ccncc2)ccc1Cl returns the recorded outcome of this test.
output: TRUE

input: // param item: COC1=C2C[C@@H](C)C[C@H](OC)[C@@H](O)[C@@H](C)C=C(C)[C@H](OC(N)=O)[C@@H](OC)C=CC=C(C)C(=O)NC(=CC1=O)C2=O ; yields the recorded call
output: TRUE

input: Field: outcome | Entry: C=Cc1c(C)c2cc3nc(cc4[nH]c(cc5nc(cc1[nH]2)C(C)=C5CCC(=O)O)c(CCC(=O)OC)c4C)[C@@]1(C)C3=CC=C(C(=O)OC)[C@H]1C(=O)OC
output: TRUE

input: Please let me know the test result on file for C[C@]12C=CC(=O)N[C@@H]1CC[C@H]1[C@H]3CC[C@@H](C(=O)Nc4cc(C(F)(F)F)ccc4C(F)(F)F)[C@@]3(C)CC[C@@H]12 .
output: TRUE

input: What call does the record list for Cn1cc(C[C@@H](N)C(=O)O)c2ccccc21 ?
output: FALSE

input: Which outcome was entered for the compound CCC(C=C[C@@H]1OC(=O)C=C[C@H]1C)=C[C@H](C)CC=CC(C)=C[C@@H](C)C(=O)[C@@H](C)[C@H](O)[C@@H](C)CC(C)=CC(=O)O in this test?
output: TRUE

input: Outcome logged for CC(C)C[C@H](NC(=O)CNC(=O)c1cc(Cl)ccc1Cl)B1OC(=O)CC(CC(=O)O)(C(=O)O)O1 (some centres not stated) in this assay:
output: TRUE
